# test-system: UniProtKB P52699
# Sequence (P52699 whole entry, looked up, species assumed): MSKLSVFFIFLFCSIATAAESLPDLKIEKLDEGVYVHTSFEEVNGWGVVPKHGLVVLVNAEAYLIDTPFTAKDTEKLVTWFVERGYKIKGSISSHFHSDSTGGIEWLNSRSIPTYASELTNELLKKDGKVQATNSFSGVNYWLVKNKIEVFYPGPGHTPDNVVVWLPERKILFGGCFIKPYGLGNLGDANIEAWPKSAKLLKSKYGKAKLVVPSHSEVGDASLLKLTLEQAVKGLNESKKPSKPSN
# assay-notes: biochemical
# Type: biochemical
# condition: CCF2-FA substrate, 2 hours at 25° C; read-out: IMP-1 IC50
readout-kind: IC50 (nM)
API: value field is a number in nM; no unit string.

Recorded IC50, per entry:
- CC(=O)N1CC(S(=O)(=O)c2ccc(-c3cccc4nc(N)[nH]c34)c(-c3nn[nH]n3)c2S(N)(=O)=O)C1: 2.38
- Nc1ccc(-c2ccc(S(=O)(=O)C3CNC3)c(S(N)(=O)=O)c2-c2nn[nH]n2)cn1: 0.862
- NCCNC(=O)c1cccc(-c2ccc(S(=O)(=O)C3CNC3)c(S(N)(=O)=O)c2-c2nn[nH]n2)c1N: 9.83

Consider the record given below.
Lookup: What measured IC50 goes with `NCCS(=O)(=O)c1ccc(-c2cccc(C(=O)N[C@@H]3CCNC3)c2N)c(-c2nn[nH]n2)c1S(N)(=O)=O` ?
Found: 1.88

---

# test-system: VIM-1 (Pseudomonas aeruginosa (strain ATCC 15692 / DSM 22644 / CIP 104116 / JCM 14847 / LMG 12228 / 1C / PRS 101 / PAO1), UniProt A0A0F7KYQ8)
# assay-notes: biochemical
# condition: CCF2-FA substrate, 2 hours at 25° C
readout-kind: IC50
Param answer (str): number followed by unit.

• Nc1nc2cccc(-c3ccc(S(=O)(=O)[C@H]4C[C@H](N)C4)c(S(N)(=O)=O)c3-c3nn[nH]n3)c2[nH]1 [Example 175] = 0.478 nM
• NCCNC(=O)c1cc(-c2ccc(S(=O)(=O)CCN)c(S(N)(=O)=O)c2-c2nn[nH]n2)cnc1N [compound 337] = 4.38 nM
• NCCS(=O)(=O)c1ccc(-c2ccc3[nH]nc(C(F)(F)F)c3c2)c(-c2nnn[nH]2)c1S(N)(=O)=O.O=C(O)C(F)(F)F [Example 163, 2,2,2-trifluoroacetate] = 0.12 nM

Lookup: What measured IC50 goes with NCCS(=O)(=O)c1ccc(-c2cccc3[nH]c(=O)[nH]c23)c(-c2nnn[nH]2)c1S(N)(=O)=O [Example 300] ?
Found: 0.162 nM

---

# test-system: VIM-1 (Pseudomonas aeruginosa (strain ATCC 15692 / DSM 22644 / CIP 104116 / JCM 14847 / LMG 12228 / 1C / PRS 101 / PAO1))
# assay-notes: biochemical
# condition: CCF2-FA substrate, 2 hours at 25° C
Listing: pIC50 of selected compounds
Formally, pIC50 is defined as -log10 of the concentration c, with c in mol/L.

Lookup: What measured pIC50 goes with `Nc1nc2c(-c3ccc(S(=O)(=O)[C@H]4C[C@@H](N)C4)c(S(N)(=O)=O)c3-c3nn[nH]n3)cccc2s1` ?
Found: 9.71

Lookup: What measured pIC50 goes with CCCS(=O)(=O)c1ccc(C2=CCC(N)CC2)c(-c2nnn[nH]2)c1S(N)(=O)=O (centres unmarked) ?
Found: 9.11

Lookup: What measured pIC50 goes with `C[C@H](N)CS(=O)(=O)c1ccc(-c2cccc3sc(N)nc23)c(-c2nn[nH]n2)c1S(N)(=O)=O` ?
Found: 9.89

Lookup: What measured pIC50 goes with `NC[C@H](N)CS(=O)(=O)c1ccc(-c2ccc(N)nc2)c(-c2nn[nH]n2)c1S(N)(=O)=O` ?
Found: 9.00

Lookup: What measured pIC50 goes with NCCS(=O)(=O)c1ccc(-c2ccnc(N)c2)c(-c2nnn[nH]2)c1S(N)(=O)=O.O=C(O)C(F)(F)F [Example 141, 2,2,2-trifluoroacetate] ?
Found: 9.00

---

# System: P. aeruginosa expressing IMP-1, efflux+ (MB9798)
# Assay type: cell-based, Pseudomonas aeruginosa
# condition: ratio MITC95 PA_9798/MITC95 PA_9799
readout-kind: Efflux ratio
// keep it numeric: no unit symbol after the value

• Nc1nc2cccc(-c3ccc(S(=O)(=O)C4CNC4)c(S(N)(=O)=O)c3-c3nn[nH]n3)c2s1 = 2.00

Lookup: What measured Efflux ratio goes with `NCCS(=O)(=O)c1ccc(-c2ccnc3ccccc23)c(-c2nnn[nH]2)c1S(N)(=O)=O.O=C(O)C(F)(F)F` ?
Found: 4.00

Lookup: What measured Efflux ratio goes with `NCCS(=O)(=O)c1ccc(-c2cccc(C(=O)O)c2N)c(-c2nn[nH]n2)c1S(N)(=O)=O` ?
Found: 2.00

Lookup: What measured Efflux ratio goes with `NCCS(=O)(=O)c1ccc(-c2cccc3[nH]c(C(=O)O)nc23)c(-c2nn[nH]n2)c1S(N)(=O)=O` ?
Found: 1.00

Lookup: What measured Efflux ratio goes with NS(=O)(=O)c1c([S+]([O-])C2CNC2)ccc(-c2ccc(C3CCNCC3)cc2)c1-c1nn[nH]n1 (stereo not shown) ?
Found: 2.00

Lookup: What measured Efflux ratio goes with `Cn1c(N)nc2c(-c3ccc(S(=O)(=O)CCN)c(S(N)(=O)=O)c3-c3nn[nH]n3)cccc21` ?
Found: 1.39

Lookup: What measured Efflux ratio goes with `Nc1nc2c(-c3ccc(S(=O)(=O)C4CNC4)c(S(N)(=O)=O)c3-c3nn[nH]n3)cccc2c(=O)[nH]1` ?
Found: 2.00

---

Listing: Efflux ratio of selected compounds
# System: P. aeruginosa expressing IMP-1, efflux+ (MB9798)
# Type: cell-based, Pseudomonas aeruginosa
# condition: ratio MITC95 PA_9798/MITC95 PA_9799
// keep it numeric: no unit symbol after the value

* Nc1ccc2cccc(-c3ccc(S(=O)(=O)C4CNC4)c(S(N)(=O)=O)c3-c3nn[nH]n3)c2n1 | 1.00

Lookup: What measured Efflux ratio goes with `Nc1nc2c(-c3ccc(S(=O)(=O)[C@@H]4CN[C@H](CO)C4)c(S(N)(=O)=O)c3-c3nn[nH]n3)cccc2s1` ?
Found: 1.00

Lookup: What measured Efflux ratio goes with `Nc1cc(-c2cc(-c3ccc(S(=O)(=O)C4CNC4)c(S(N)(=O)=O)c3-c3nnn[nH]3)ccn2)ccn1` ?
Found: 31.99

Lookup: What measured Efflux ratio goes with `N[C@H](CO)CS(=O)(=O)c1ccc(-c2cccc3[nH]cnc23)c(-c2nn[nH]n2)c1S(N)(=O)=O` ?
Found: 1.00

Lookup: What measured Efflux ratio goes with Nc1nc2c(-c3ccc([S+]([O-])C4CNC4)c(S(N)(=O)=O)c3-c3nn[nH]n3)cccc2[nH]1 (stereo not shown) ?
Found: 4.00

Lookup: What measured Efflux ratio goes with `NCCS(=O)(=O)c1ccc(-c2ccc3c(c2)CC(=O)N3)c(-c2nnn[nH]2)c1S(N)(=O)=O.O=C(O)C(F)(F)F` ?
Found: 16.00

Lookup: What measured Efflux ratio goes with `Cn1ncc2c(-c3ccc(S(=O)(=O)C4CNC4)c(S(N)(=O)=O)c3-c3nnn[nH]3)cccc21.O=C(O)C(F)(F)F` ?
Found: 15.99

Lookup: What measured Efflux ratio goes with `NCCS(=O)(=O)c1ccc(-c2cccc3nc(N)sc23)c(-c2nn[nH]n2)c1S(N)(=O)=O` ?
Found: 1.50

Lookup: What measured Efflux ratio goes with `NS(=O)(=O)c1c(S(=O)(=O)C2CNC2)ccc(-c2ccc(C3CCNCC3)cc2)c1-c1nn[nH]n1` ?
Found: 1.00

---

# test-system: VIM-1 (Pseudomonas aeruginosa (strain ATCC 15692 / DSM 22644 / CIP 104116 / JCM 14847 / LMG 12228 / 1C / PRS 101 / PAO1), UniProt A0A0F7KYQ8)
# assay-notes: biochemical
# condition: CCF2-FA substrate, 2 hours at 25° C
hey, just use MET if measured IC50 is less than 0.4 nM, otherwise NOT MET

Lookup: Bench note: check whether `NC[C@H](O)CS(=O)(=O)c1ccc(-c2cccc3[nH]cnc23)c(-c2nn[nH]n2)c1S(N)(=O)=O` shows IC50 below 0.4 nM
Found: MET

---

Listing: IC50 of selected compounds
# test-system: NDM-1 (Klebsiella pneumoniae)
# Sequence (C7C422 whole entry, looked up, species assumed): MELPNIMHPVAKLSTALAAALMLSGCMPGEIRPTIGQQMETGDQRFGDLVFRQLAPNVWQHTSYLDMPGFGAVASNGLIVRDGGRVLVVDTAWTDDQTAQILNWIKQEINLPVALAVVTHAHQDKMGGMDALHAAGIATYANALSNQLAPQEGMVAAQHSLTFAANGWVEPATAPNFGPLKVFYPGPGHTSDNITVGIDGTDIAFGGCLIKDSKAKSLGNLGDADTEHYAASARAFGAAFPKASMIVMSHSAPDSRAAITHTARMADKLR
# assay-notes: biochemical
# Type: biochemical
# condition: CCF2-FA substrate, 2 hours at 25° C; read-out: NDM-1 IC50
API: value field is a number in pM; no unit string.

Recorded IC50, per entry:
• NCCS(=O)(=O)c1ccc(-c2ccnc3c2CCCC3)c(-c2nn[nH]n2)c1S(N)(=O)=O = 1330
• NC[C@H](CO)S(=O)(=O)c1ccc(-c2cccc3nc(N)[nH]c23)c(-c2nn[nH]n2)c1S(N)(=O)=O = 200
• CN(C)CCS(=O)(=O)c1ccc(-c2cccc3sc(N)nc23)c(-c2nn[nH]n2)c1S(N)(=O)=O = 76.1
• Cn1ncc2c(-c3ccc(S(=O)(=O)C4CNC4)c(S(N)(=O)=O)c3-c3nnn[nH]3)cccc21.O=C(O)C(F)(F)F [Example 123, 2,2,2-trifluoroacetate] = 168
• CNc1nc2c(-c3ccc(S(=O)(=O)CCN)c(S(N)(=O)=O)c3-c3nn[nH]n3)cccc2s1 = 74.6
• Nc1nc2c(-c3ccc(S(=O)(=O)CC4(N)CC4)c(S(N)(=O)=O)c3-c3nn[nH]n3)cccc2s1 = 138

Lookup: What measured IC50 goes with `NS(=O)(=O)c1c(SC2CNC2)ccc(-c2cccc3nccn23)c1-c1nnn[nH]1` ?
Found: 5910

Lookup: What measured IC50 goes with `CS(=O)(=O)c1ccc(-c2cccc3nc(N)[nH]c23)c(-c2nn[nH]n2)c1S(N)(=O)=O` ?
Found: 4770

Lookup: What measured IC50 goes with `Nc1ncccc1-c1cc(-c2ccc(S(=O)(=O)C3CNC3)c(S(N)(=O)=O)c2-c2nnn[nH]2)ccn1` ?
Found: 1040

Lookup: What measured IC50 goes with `NC(=O)c1nc2c(-c3ccc(S(=O)(=O)C4CNC4)c(S(N)(=O)=O)c3-c3nn[nH]n3)cccc2[nH]1` ?
Found: 82.5

Lookup: What measured IC50 goes with `NCCS(=O)(=O)c1ccc(-c2ccc(C3CCNCC3)cc2)c(-c2nn[nH]n2)c1S(N)(=O)=O` ?
Found: 731

Lookup: What measured IC50 goes with `Nc1nc2cc(-c3ccc(SC4CNC4)c(S(N)(=O)=O)c3-c3nn[nH]n3)ccc2[nH]1` ?
Found: 20800

Lookup: What measured IC50 goes with C[S+]([O-])c1ccc(-c2ccc(C3CCNCC3)cc2)c(-c2nnn[nH]2)c1S(N)(=O)=O (stereo not drawn) ?
Found: 31900

Lookup: What measured IC50 goes with `C[C@@H](CN)S(=O)(=O)c1ccc(-c2cccc3sc(N)nc23)c(-c2nn[nH]n2)c1S(N)(=O)=O` ?
Found: 93.4

Lookup: What measured IC50 goes with `NC[C@@H](N)CS(=O)(=O)c1ccc(-c2ccc(N)nc2)c(-c2nn[nH]n2)c1S(N)(=O)=O` ?
Found: 1160
